Values from ChEMBL document CHEMBL4689842

Catalogue of Growth Rate values
- Tested on: Fibroblast
- test.summary: Incucyte cell viability with human fibroblast; also: filed as whole numbers so only -1 and 0 and 1 occur
- Type: toxicity, cell-based
- measurement.context: 12 h, 10 µM, compound concentration 10 uM, replicate number 1, timepoint 12 hours

These recorded examples may help you get a feel for the data.
# molecule, Growth Rate
records = [
    ("CCOC(=O)c1c(C)[nH]c2ccc3c(c12)CN1CCc2cc(OC)ccc2C1O3 (stereo not given)", 0),
    ("Cc1c(NC(=O)c2cc(C(N)=O)nc3cc(F)ccc23)c(C(F)(F)F)nn1Cc1ccc(C(C)(C)C)cc1", 0),
]

Give its Growth Rate value. Item: Cc1ccc2nc(NCCN)c3ncc(C)n3c2c1.O=C(O)C(F)(F)F.O=C(O)C(F)(F)F
0

Note, next up: COc1ccc(-c2ccc3c(N4CCOCC4)nc(N4C[C@@H](C)O[C@@H](C)C4)nc3n2)cc1CO
1

Note, next up: CO[C@H]1CC[C@H](CNc2ccc(S(=O)(=O)NC(=O)c3ccc(N4CCN(CC5=C(c6ccc(Cl)cc6)CC(C)(C)CC5)CC4)cc3Oc3cnc4[nH]ccc4c3)cc2[N+](=O)[O-])CC1
0

Note, next up: O=C(NS(=O)(=O)c1ccc(NCC2CCOCC2)c([N+](=O)[O-])c1)c1ccc(N2CCN(Cc3ccc(C(F)(F)F)cc3-c3ccc(Cl)cc3)CC2)cc1Oc1cnc2[nH]ccc2c1
1

Note, next up: CCCNS(=O)(=O)Nc1ncnc(OCCOc2ncc(Br)cn2)c1-c1ccc(Br)cc1
0

Note, next up: C=C(c1ccc(C(=O)O)cc1)c1cc2c(cc1C)C(C)(C)CCC2(C)C
1

Note, next up: C[C@@H]1CN(c2cc(-c3n[nH]c4ccc(OC5(C)CC5)cc34)ncn2)C[C@H](C)O1
1

Note, next up: Cc1ccc2nc(CNCCCOc3ccccc3)cc(O)c2c1
0
